molecular target: recombinant human ATX beta isoform with N-terminal purification tag (human, UniProt Q13822 49-863); assay: SPR Biacore 3000, His-ATX beta captured on anti-Penta-His, mAb as analyte, bivalent analyte model
Please go through the items and note down their pKd.
One number for each entry, as −log10 of the molar value.

Dear colleague, could you send me pKd for each of the items below? Thanks.
1. mAb ATXB14 (antibody, V domains shown, Human IgG1/kappa from Fab F104) VH: QVQLVQSGAEVKKPGSSVKVSCKASGGTFSSYAISWVRQAPGQGLEWMGGIIPIFGNTNYAQKFQGRVTITADESTSTAYMELSSLRSEDTAVYYCARDISGYGDLDYWGQGTLVTVSS VL: DIQMTQSPSSLSASVGDRVTITCRASQSIDGWLNWYQQKPGKAPKLLIYAASSLQSGVPSRFSGSGSGTDFTLTISSLQPEDFATYYCQQSYSTPLTFGQGTKVEIK
2. mAb ATXB9 (antibody, V domains shown, Human IgG1/kappa from Fab F89) VH: QVQLVQSGAEVKKPGSSVKVSCKASGGTFSSYAISWVRQAPGQGLEWMGGISPYFGNANYAQKFQGRVTITADESTSTAYMELSSLRSEDTAVYYCARYGDFGGNVFTEFDYWGQGTLVTVSS VL: EIVLTQSPGTLSLSPGERATLSCRASQSVNNSDLAWYQQKPGQAPRLLIYTASSRATGIPDRFSGSGSGTDFTLTISRLEPEDFAVYYCQQATTVPLTFGQGTKVEIK
3. mAb ATXB8 (antibody, V domains shown, Human IgG1/kappa from Fab F96) VH: QVQLVQSGAEVKKPGSSVKVSCKASGGTFSSYAISWVRQAPGQGLEWMGGIIPIFGTANYAQKFQGRVTITADESTSTAYMELSSLRSEDTAVYYCARDSSAYGDFDYWGQGTLVTVSS VL: DIQMTQSPSSLSASVGDRVTITCRASQSIDGWLNWYQQKPGKAPKLLIYAASSLQSGVPSRFSGSGSGTDFTLTISSLQPEDFATYYCQQSYSTPLTFGQGTKVEIK

Response:
9.43
7.32
8.75
